# System: ACHN
# EXPERIMENTAL DETAILS: NCI tumour cell line growth inhibition, 48 h
Calls of active or inactive are those of the source. No stated cut-off is given here; in the data, active = GI50 up to about 1.1 µM and inactive = higher.
READOUT KIND: GI50

COMPOUND	READOUT KIND	RESULT VALUE
O=C(c1ccccc1)c1nc2ccc(Cl)cc2c2c1Cc1ccccc1-2	GI50	> 100 µM (inactive)
C=CCC1([C@H](C)[C@@H](OC(C)=O)c2cc(OC)c(OC)c(OC)c2)C[C@@H](OC)CCC1=O (stereo not given in full)	GI50	19.8 µM (inactive)
CC#C[I+]c1ccccc1	GI50	15.7 µM (inactive)
O=C1C(Cl)C(c2cc3cc(Br)ccc3nc2Cl)N1c1ccc(Cl)cc1 (stereo not given)	GI50	4.5 µM (inactive)
Cn1c(SCc2ccc([N+](=O)[O-])cc2)nnc1C12CC3CC(CC(C3)C1)C2	GI50	> 10 µM (inactive)
COc1cccc2c1C(=O)c1c(O)c3c(c(O)c1C2=O)C[C@@](O)(/C(C)=N/NC(=O)c1ccc(Cl)c(Cl)c1)C[C@@H]3OC1CC(N)C(O)C(C)O1 (stereo not given in full)	GI50	0.0364 µM (active)
Oc1nnc(-c2ccc(F)cc2)cc1-c1ccccc1	GI50	57.9 µM (inactive)
CC(C)c1ccc(C2C3=C(N=C4SCC(=O)N42)C(=O)c2ccccc23)cc1 (stereo not given)	GI50	73.1 µM (inactive)
CC(CCc1nc2ccccc2s1)(c1ccc(O)cc1)c1ccc(O)cc1	GI50	18.3 µM (inactive)
CCCC12Cc3c(OC)ccc(OC)c3CC(Cc3c(OC)ccc(OC)c31)C2=O (stereo not given)	GI50	> 100 µM (inactive)

###

# System: HT-29
# EXPERIMENTAL DETAILS: NCI tumour cell line growth inhibition, 48 h
The source made the active and inactive calls. Rule as the data show it: active = GI50 up to about 1.1 µM and inactive = higher. Where a SMILES comes first, the peptide text is derived from it. [ ]: non-standard residue; d: D form. The star is where a group is joined. ξ: configuration not given here. ξD = NC(CC(=O)O)C(=O)O; Ac3c = NC1(C(=O)O)CC1; Boc = CC(C)(C)OC(=O)*; OBn = c1ccc(CO*)cc1
Labels: active, inactive

COMPOUND	TESTED ON	ANSWER LABEL
CC1(C)O[C@@H](CCl)C[C@@H](C#N)O1	HT-29	inactive
NNC(=O)/C(=C/c1ccc(Cl)c(Cl)c1)NC(=O)c1ccccc1	HT-29	inactive
COC(=O)C1=COC2OC3/C(=C\c4ccc(O)c(OC)c4)C(=O)OC34C=CC1C24 (stereo not given)	HT-29	inactive
C[C@H](N)C(=O)Nc1ccc(-c2nc3ccccc3s2)cc1	HT-29	inactive
CC(=O)N1C(Nc2cnc3ccccc3c2)CCN1c1ccccc1 (stereo not given)	HT-29	inactive
C/C(CN1C(=O)c2ccccc2C1=O)=N\NS(C)(=O)=O	HT-29	inactive
Cc1nnc2sc(NN)nn12	HT-29	inactive
CCc1ccc2c(c1)/C(=C1/Nc3ccccc3C1=O)C(=O)N2	HT-29	inactive
C=C(C)[C@@H]1CC[C@@]2(C)[C@H]1[C@H]1CCC3[C@@]4(C)CC[C@H](O)C(C)(C)[C@@H]4CC[C@@]3(C)[C@]1(C)C[C@@H]2O (stereo not given in full)	HT-29	inactive
Clc1nc(Nc2nc3ccccc3[nH]2)nc(Cl)c1Cc1ccccc1	HT-29	inactive
O=C1NC(c2cccc3ccccc23)Nc2ccc(Cl)cc21 (stereo not given)	HT-29	active
N#C/C(=C/c1cccc(Oc2ccccc2)c1)c1ccccc1	HT-29	inactive
N#Cc1nc(Nc2ccc([N+](=O)[O-])cc2)sc1N	HT-29	inactive
OC1(c2ccccc2)c2ccccc2N=C2NCCN21 (stereo not given)	HT-29	inactive
CCCc1cc(O)c2c(C)c3[nH]c4ccc(Cl)cc4c3c(C)c2n1	HT-29	inactive
CC1(C)CC(=O)C/C(=N/c2ccc([N+](=O)[O-])cc2)C1	HT-29	inactive
COc1ccc2c(c1)CN1C(=N2)CSC1c1c(Cl)cccc1[N+](=O)[O-] (stereo not given)	HT-29	inactive
O=C1c2c(Cl)c(Cl)c(Cl)c(Cl)c2C(=O)N1CCN(c1c(Cl)ssc1=O)c1c(Cl)ssc1=O	HT-29	inactive
COc1cccc(-c2cc(O)c3c(C)ccnc3n2)c1	HT-29	active
CCOC(=O)C(N)CSC(=O)NC (stereo not given)	HT-29	inactive
CCCCOC(=O)NC(=O)c1cn(CCCOC(=O)CCCCCCCCC(=O)OCCCn2cc(C(=O)NC(=O)OCCCC)c(=O)[nH]c2=O)c(=O)[nH]c1=O	HT-29	inactive
COC(=O)C1(NC(=O)C(CC(=O)OCc2ccccc2)NC(=O)OC(C)(C)C)CC1 (stereo not given) (Boc-[ξD](OBn)-[Ac3c]-OMe)	HT-29	inactive
O=C(O)Cc1c(-c2ccc([N+](=O)[O-])cc2)c(=O)oc2cc(O)ccc12	HT-29	inactive
O=[N+]([O-])C(=C(N1CCOCC1)N1CCOCC1)/C(Cl)=C(\Cl)[N+](=O)[O-]	HT-29	inactive
O=c1oc2ccccc2c(Nc2ccc3c(c2)S(=O)(=O)c2ccccc2O3)c1[N+](=O)[O-]	HT-29	inactive
O=C(OCc1ccccc1)N1N=NC2C1C1CC(OCc3ccccc3)(OCc3ccccc3)C2O1 (stereo not given)	HT-29	inactive
COc1ccc2cc1Oc1ccc(cc1)C[C@H]1c3cc(c(OC)cc3CCN1C)Oc1c(O)c(OC)cc3c1[C@H](C2)N(C)CC3	HT-29	inactive
C[C@]12CC[C@H]3[C@@H](CC=C4C[C@@H](O)CC[C@@]43C)[C@@H]1CC[C@@H]2N(CCO)CCO	HT-29	inactive
COCOc1ccc(C(=O)C(C)c2ccc(OCOC)cc2OCOC)c(O)c1 (stereo not given)	HT-29	inactive
Nc1ccc(C(=O)NN2C(=O)C(Cl)C2c2ccccc2Cl)cc1 (stereo not given)	HT-29	inactive
O=C(O)C1=C(C(=O)O)N(c2ccncc2)C(c2ccco2)=CC1c1ccccc1[N+](=O)[O-] (stereo not given)	HT-29	inactive
COc1cc(OCc2ccc3nc(-c4ccccc4)c(Cl)nc3c2)cc(OC)c1OC	HT-29	inactive
COc1cc2cccc(/N=C/c3c(Br)ccc(OC)c3OC(C)C)c2cc1OC	HT-29	inactive
CN1CCN(c2ccc3nc(-c4cc(O)c5c(nc(CO)n5C)c4O)[nH]c3n2)CC1	HT-29	inactive
CCCCCCSc1nc(COC(=O)NC)c(COC(=O)NC)n1C	HT-29	inactive
CC(C)c1ccc(C2C3=C(N=C4SCC(=O)N42)C(=O)c2ccccc23)cc1 (stereo not given)	HT-29	inactive
O=P1(N2CCOCC2)OCCO1	HT-29	inactive
O=C(O)c1cc2ccccc2c(/N=N/c2ccc(S(=O)(=O)Nc3nccs3)cc2)c1O	HT-29	inactive
CC(C)NC1CCCCC2c3cc(F)ccc3[C@]12O (stereo not given in full)	HT-29	inactive
Nc1ncc(N)c(NCC2(CO)CC(CCc3ccccc3)C2)n1 (stereo not given)	HT-29	inactive

###

# Tested on: SK-MEL-28
# EXPERIMENTAL DETAILS: NCI tumour cell line growth inhibition, 48 h
The source made the active and inactive calls. Cut-off read from the data, not from the text of the source: active = GI50 up to about 1.1 µM and inactive = higher.
Labels: label 1 (active), label 0 (inactive)

COMPOUND	TESTED ON	ANSWER LABEL
CC(C)(C)NCC(O)COc1cccc2[nH]c(C#N)cc12 (centres undefined)	SK-MEL-28	label 0
O=C1C(c2cnc3ccccc3n2)=C(O)c2ccccc21	SK-MEL-28	label 0
Cc1cccc(Nc2nc3ccccc3nc2NS(=O)(=O)c2ccccc2)c1	SK-MEL-28	label 0
CO[C@H]1C[C@](C)(O)Cc2cc3c(c(O)c21)C(=O)c1c(O)cc2c(c1C3=O)O[C@@H]1O[C@@]2(C)[C@H](O)[C@@H](N(C)C)[C@@H]1O	SK-MEL-28	label 0
Cc1ccc(NC(=O)C2C(=O)N(c3ccc(C)c(C)c3)C(=O)/C2=N/O)cc1C (centres undefined)	SK-MEL-28	label 0
CCOn1c(C2(CC3CCN(C(=O)c4ccccc4)CC3)OCCO2)cc2ccccc21	SK-MEL-28	label 0
Nc1ncnc2c1nc(Cl)n2C1OC(CO)C(O)C1O (centres undefined)	SK-MEL-28	label 0
CC(C)[C@]12O[C@H]1[C@@H]1O[C@@]13[C@@]1(C)CCC4=C(COC4=O)[C@@H]1C[C@@H]1O[C@@]13C2=O [TRIPTONIDE]	SK-MEL-28	label 1
CN(C)c1n/c(=N/c2cccc(Cl)c2)ss1	SK-MEL-28	label 0
CC1=C(C(=O)NCc2ccccc2)C(/C=C/c2ccccc2)C(C(=O)NCc2ccccc2)=C(C)N1	SK-MEL-28	label 0
NC(=S)N/N=C1\CCc2ccccc2C1	SK-MEL-28	label 0
COC1=CC(=O)C2C(C1=O)C(c1ccc(Cl)cc1)[C@@H]2C (some centres undefined)	SK-MEL-28	label 0
O=C(CN1CCOCC1)c1ccc2c(c1)oc(=O)n2CCN1CCCC1	SK-MEL-28	label 0
C=C1c2[nH]c3c([N+](=O)[O-])c(OC)ccc3c2CCN1C(C)=O	SK-MEL-28	label 0
COC(CN(C(C)=O)C1CCC2(SCCS2)c2[nH]c3ccccc3c21)OC (centres undefined)	SK-MEL-28	label 0
O=C1c2c(Br)sc(Br)c2[C@@H](NC(=O)C(F)(F)F)C1Br (some centres undefined)	SK-MEL-28	label 0
CC12CCCC(O)C1CCC1=CC3(CCC12)SCCS3 (centres undefined)	SK-MEL-28	label 0
Nc1ccc(C(=O)N/C(=C\c2cccc([N+](=O)[O-])c2)c2nc3c4c(ccc3[nH]2)C(=O)c2ccccc2C4=O)cc1	SK-MEL-28	label 0
Cc1cn(C2CC(n3cncn3)C(C(C)O)O2)c(=O)[nH]c1=O (centres undefined)	SK-MEL-28	label 0
O=C(O)c1cc2ccccc2c(/N=N/c2ccc(S(=O)(=O)Nc3nccs3)cc2)c1O	SK-MEL-28	label 0
COc1cc(C)cc2c1C(=O)C(NC(C)=O)=CC2=O	SK-MEL-28	label 0
O=C(/C=C/c1ccc(O)cc1)c1cc(O)cc(O)c1	SK-MEL-28	label 0
COC(=O)c1c(C)cccc1C1CN=NC12Cc1ccc(C)cc1C2=O (centres undefined)	SK-MEL-28	label 0
O=C(O)CCNS(=O)(=O)c1ccc([N+](=O)[O-])cc1	SK-MEL-28	label 0
COc1cc(OC)cc(-n2c(N)c(-c3nc4ccccc4s3)c3ccc([N+](=O)[O-])cc3c2=O)c1	SK-MEL-28	label 0
C[C@H](N)C(=O)Nc1ccc(-c2nc3ccccc3s2)cc1	SK-MEL-28	label 0
CC(C)(C)c1ccc2c(c1)C#Cc1cc3c(cc1OCCCO2)C#Cc1cc(C(C)(C)C)ccc1OCCCO3	SK-MEL-28	label 0
COC(=O)C12Oc3ccc(-c4ccc5c(c4O)C(=O)C4=CCC(C)C(O)C4(C(=O)OC)O5)c(O)c3C(=O)C1=CCC(C)C2O (centres undefined)	SK-MEL-28	label 0
O/N=C1/C(=C/c2ccccc2)CCCC1C(NO)c1ccccc1 (centres undefined)	SK-MEL-28	label 0
Cc1nc2c(cc1OCc1ccccc1)C(=O)C1=C(C2=O)C2OC(=O)CC2OC1(C)C (centres undefined)	SK-MEL-28	label 1
O=C(OCc1ccccc1)N1N=NC2C1C1CC(OCc3ccccc3)(OCc3ccccc3)C2O1 (centres undefined)	SK-MEL-28	label 0
CSc1nc2ccccc2c(=O)n1/N=C1\C(=O)N(CN2CCOCC2)c2ccc(Cl)cc21	SK-MEL-28	label 0
COC(=O)C1=C(C)NC2(O)C=CC(=O)C3C(=O)N(c4ccccc4)C(=O)C132 (centres undefined)	SK-MEL-28	label 0
N#C/C(=C\c1cccc(O)c1O)C(N)=O	SK-MEL-28	label 0
CCCc1ccc(OCC(=O)N/N=C/c2c(-c3ccccc3)[nH]c3ccccc23)cc1	SK-MEL-28	label 0
O=C(Nc1ccc(Cl)cc1)c1cc(S(=O)(=O)Nc2n[nH]c(Nc3ccc4ccccc4c3)n2)c(SSc2cc(Cl)c(C(=O)Nc3ccc(Cl)cc3)cc2S(=O)(=O)Nc2n[nH]c(Nc3ccc4ccccc4c3)n2)cc1Cl	SK-MEL-28	label 0
O=C1c2cccc([N+](=O)[O-])c2C(=O)N1c1ncn[nH]1	SK-MEL-28	label 0
CCC1(COC(NC(=O)c2ccccc2)(C(F)(F)F)C(F)(F)F)COC1	SK-MEL-28	label 0
c1ccc(-c2nn(-c3ccccc3)[n+](-c3ccccc3)n2)cc1	SK-MEL-28	label 0

Data provenance is ChEMBL document CHEMBL1201862.
